test: Oral bioavailability in rat at 56 or 168 mg/kg/day administered through gavage for 14 consecutive days by HPLC analysis; assay type: ADME, organism-based; conditions: in vivo
readout: bioavailability (%)
Give the value in % but do not write % after it.

Report measured bioavailability; entry is `COc1cc(/C=C/c2ccc(O)cc2)cc(OC)c1`
80

====

Property: pEC50; scope: individual compounds
molecular target: NAD-dependent protein deacetylase sirtuin-1 (Homo sapiens, UniProt Q96EB6); assay: Activation of recombinant human SIRT1 assessed as increase in deacetylation of Fluor de Lys-SIRT1-specific substrate after 2 hrs by HTS assay
pEC50: −log10 of the molar value.

These solved cases illustrate the format of a correct answer.
compound	pEC50
CCc1ccccc1-n1c(N)c(C(=O)NCC2CCCO2)c2nc3ccccc3nc21 (stereo not drawn)	> 6.00
Nc1c(S(=O)(=O)c2ccccc2)c2nc3ccccc3nc2n1-c1ccc(F)cc1	> 6.00

Now for another entry.
Write down the reported pEC50 (system: NAD-dependent protein deacetylase sirtuin-1 (Homo sapiens, UniProt Q96EB6)) of `COCCCn1c(N)c(C(=O)NC2CCCC2)c2nc3ccccc3nc21`
> 6.00

====

Property: pIC50; scope: individual molecules
target: NAD-dependent protein deacetylase sirtuin-1 (Homo sapiens); test: Inhibition of recombinant human GST-tagged SIRT1 overexpressed in Escherichia coli DH5alpha assessed as deacetylation activity using [3H]-MPSDKTIGG as substrate measured after overnight incubation by liquid scintillation counting method
pIC50 is defined as minus the log10 of a concentration measured in mol/L.

These solved cases illustrate the format of a correct answer.
lineNotation	assayTarget	pIC50
CC(C)=CCC/C(C)=C/C[C@@H]1C[C@]2(CC=C(C)C)C(=O)[C@@](CC=C(C)C)(C(=O)C(Cc3ccc(O)c(O)c3)=C2O)[C@@]1(C)CCC=C(C)C	NAD-dependent protein deacetylase sirtuin-1 (Homo sapiens)	5.05
CC(C)=CCC[C@]1(C)[C@@H](CC=C(C)C)C[C@]2(CC=C(C)C)C(=O)C(CC=C(C)C)=C(O)[C@@]1(C(=O)C(C)C)C2=O	NAD-dependent protein deacetylase sirtuin-1 (Homo sapiens)	4.82

Now for another entry.
Report measured pIC50; entry is `CC(C)=CCC[C@]1(C)[C@@H](CC=C(C)C)C[C@@]2(CC=C(C)C)C(=O)[C@]1(C(=O)C(C)C)C(=O)C(CC=C(C)C)=C2OCC(=O)O`
5.15

====

biological target: NAD-dependent protein deacetylase sirtuin-2 (Homo sapiens, UniProt Q8IXJ6); experiment: Inhibition of recombinant human SIRT2 assessed as deacetylation activity using fluorescent substrate in presence of NAD+ by fluorescence analysis
readout: IC50 (µM)
Give the value in µM but do not write µM after it.

Report measured IC50; entry is O=C(/C=C/c1ccc(O)c(O)c1)NC(Cc1c[nH]c2ccccc12)C(=O)O (stereo unspecified)
8.7

====

molecular target: NAD-dependent protein deacetylase sirtuin-2 (Homo sapiens, UniProt Q8IXJ6); experiment: Competitive inhibition of human SIRT2 assessed as deacetylation activity using fluorescent peptide substrate in presence of NAD+ by Lineweaver-Burk plot analysis
readout: pKi
pKi is defined as minus the log10 of a concentration measured in mol/L.

Report measured pKi; entry is O=C(/C=C/c1ccc(O)c(O)c1)NC(Cc1c[nH]c2ccccc12)C(=O)O (stereo unspecified)
5.28

====

Biological target: NAD-dependent protein deacetylase sirtuin-1 (Homo sapiens)
Sequence (Q96EB6 whole entry): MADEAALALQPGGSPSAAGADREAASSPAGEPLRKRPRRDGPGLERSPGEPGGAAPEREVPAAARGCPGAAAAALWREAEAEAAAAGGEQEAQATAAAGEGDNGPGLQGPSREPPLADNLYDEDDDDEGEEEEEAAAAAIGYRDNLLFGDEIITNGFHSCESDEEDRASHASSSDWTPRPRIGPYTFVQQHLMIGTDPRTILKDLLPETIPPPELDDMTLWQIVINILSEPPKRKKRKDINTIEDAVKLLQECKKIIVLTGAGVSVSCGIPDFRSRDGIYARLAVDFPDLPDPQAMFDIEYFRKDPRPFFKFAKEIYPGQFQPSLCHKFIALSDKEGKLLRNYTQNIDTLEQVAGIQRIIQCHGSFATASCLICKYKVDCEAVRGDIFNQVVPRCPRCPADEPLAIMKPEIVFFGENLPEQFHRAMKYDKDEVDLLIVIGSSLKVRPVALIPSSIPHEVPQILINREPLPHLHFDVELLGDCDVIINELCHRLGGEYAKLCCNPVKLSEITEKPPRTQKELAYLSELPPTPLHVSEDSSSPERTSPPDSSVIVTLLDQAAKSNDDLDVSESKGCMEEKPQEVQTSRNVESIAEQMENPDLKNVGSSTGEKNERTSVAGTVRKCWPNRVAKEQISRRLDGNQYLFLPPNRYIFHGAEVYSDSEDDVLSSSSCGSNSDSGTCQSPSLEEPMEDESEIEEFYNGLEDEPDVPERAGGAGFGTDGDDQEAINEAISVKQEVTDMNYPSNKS
Test: Inhibition of human SIRT1 assessed as deacetylation activity preincubated with protein followed by addition of AMC-tagged Arg-His-Lys-Lys(Ac) (379 to 382 residues) as substrate measured after 45 mins in presence of NAD+ by fluorescence assay
readout: IC50 (µM)
Give the value in µM but do not write µM after it.

lineNotation	IC50, µM
N#CC1=C(N)NC(SCC(=O)c2ccc(O)c(O)c2)=C(C#N)C1=C1C=CC(=O)C=C1	16.4

Report measured IC50; entry is `Oc1ccccc1-c1nc2ccc(Cl)cn2c1NCc1ccc2c(c1)OCO2`
32

====

target: NAD-dependent protein deacetylase sirtuin-2 (Homo sapiens, UniProt Q8IXJ6); assay: Noncompetitive inhibition of human SIRT2 assessed as deacetylation activity using fluorescent substrate in presence of NAD+ by Lineweaver-Burk plot analysis
readout: Ki (µM)
Give the value in µM but do not write µM after it.

Report measured Ki; entry is O=C(/C=C/c1ccc(O)c(O)c1)NC(Cc1c[nH]c2ccccc12)C(=O)O (stereo unspecified)
9.8

====

Target: UniProtKB Q8IXJ6
Sequence (Q8IXJ6 whole entry): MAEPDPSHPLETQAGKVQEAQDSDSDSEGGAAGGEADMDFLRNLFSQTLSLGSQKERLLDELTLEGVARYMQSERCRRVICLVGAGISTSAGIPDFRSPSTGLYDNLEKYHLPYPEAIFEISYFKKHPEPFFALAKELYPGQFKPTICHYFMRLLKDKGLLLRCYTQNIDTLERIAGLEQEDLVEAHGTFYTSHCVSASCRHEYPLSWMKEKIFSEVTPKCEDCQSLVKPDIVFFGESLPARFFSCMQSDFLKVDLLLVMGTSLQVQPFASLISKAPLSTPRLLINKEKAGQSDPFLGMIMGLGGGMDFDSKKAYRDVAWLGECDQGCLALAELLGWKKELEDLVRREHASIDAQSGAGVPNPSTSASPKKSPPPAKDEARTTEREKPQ
Experiment: Inhibition of recombinant human GST-tagged SIRT2 overexpressed in Escherichia coli DH5alpha assessed as deacetylation activity using [3H]-MPSDKTIGG as substrate measured after overnight incubation by liquid scintillation counting method
Property: pIC50; scope: individual compounds
pIC50 is defined as minus the log10 of a concentration measured in mol/L.

These solved cases illustrate the format of a correct answer.
lineNotation	numericReadout
CC(C)=CCC[C@]1(C)[C@@H](CC=C(C)C)C[C@@]2(CC=C(C)C)C(=O)[C@]1(C(=O)C(C)C)C(=O)C(CC=C(C)C)=C2OCC(=O)O	4.68
CC(C)=CCC[C@]1(C)[C@@H](CC=C(C)C)C[C@]2(CC=C(C)C)C(=O)C(CC=C(C)C)=C(O)[C@@]1(C(=O)C(C)C)C2=O	4.55

Report measured pIC50; entry is `CC(C)=CCC/C(C)=C/C[C@@H]1C[C@]2(CC=C(C)C)C(=O)[C@@](CC=C(C)C)(C(=O)C(Cc3ccc(O)c(O)c3)=C2O)[C@@]1(C)CCC=C(C)C`
4.66

====

test: Oral bioavailability in rat at 50 or 150 mg/kg/day administered through gavage for 14 consecutive days by HPLC analysis; type: ADME, organism-based; conditions: in vivo
readout: bioavailability (%)
Give the value in % but do not write % after it.

Report measured bioavailability; entry is `Oc1ccc(/C=C/c2cc(O)cc(O)c2)cc1`
20

====

Molecular target: NAD-dependent protein deacetylase sirtuin-1 (Homo sapiens, UniProt Q96EB6)
Sequence (Q96EB6 whole entry): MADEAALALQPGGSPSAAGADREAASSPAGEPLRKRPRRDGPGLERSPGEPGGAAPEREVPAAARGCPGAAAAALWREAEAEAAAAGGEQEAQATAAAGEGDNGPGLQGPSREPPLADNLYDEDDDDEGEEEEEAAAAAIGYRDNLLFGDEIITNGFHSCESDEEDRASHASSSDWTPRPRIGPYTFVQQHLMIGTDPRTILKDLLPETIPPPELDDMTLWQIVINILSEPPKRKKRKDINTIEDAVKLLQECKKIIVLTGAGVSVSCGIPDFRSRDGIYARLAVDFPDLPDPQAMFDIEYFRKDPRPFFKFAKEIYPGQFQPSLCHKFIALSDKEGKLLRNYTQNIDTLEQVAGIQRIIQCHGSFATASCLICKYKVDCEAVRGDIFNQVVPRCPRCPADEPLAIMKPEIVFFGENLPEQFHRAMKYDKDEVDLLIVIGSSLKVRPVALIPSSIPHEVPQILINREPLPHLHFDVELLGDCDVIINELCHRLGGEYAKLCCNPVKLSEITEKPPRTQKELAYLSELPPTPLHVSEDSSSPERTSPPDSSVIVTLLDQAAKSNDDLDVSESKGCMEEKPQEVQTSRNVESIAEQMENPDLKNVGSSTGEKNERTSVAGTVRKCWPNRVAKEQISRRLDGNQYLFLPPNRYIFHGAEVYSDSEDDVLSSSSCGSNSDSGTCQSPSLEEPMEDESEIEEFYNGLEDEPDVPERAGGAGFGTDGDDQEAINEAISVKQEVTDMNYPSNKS
Assay: Inhibition of SIRT1 (unknown origin) using acetylated lysine as substrate by Fluor de Lys assay
pIC50: −log10 of the molar value.
Property: pIC50; scope: individual compounds

lineNotation	pIC50
NC(=O)c1ccccc1Oc1ccccc1	< 4.00

Report measured pIC50; entry is `NC(=O)c1cccc(Nc2ccccc2)c1`
< 4.00

The measurements presented in this section are drawn from ChEMBL document CHEMBL3856182.
